test-protocol: NCI Yeast Anticancer Drug Screen. Data for the sgs1 mgt1 strain (AID 161);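 note: 0% = growth of cultures given vehicle only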
experimental-conditions: S. cerevisiae sgs1 mgt1 strain, at 50.0 µM
Compounds without any hit were thinned out: in the full panel of roughly 79,000, 15% have a hit. The source made the active and inactive calls. Cut-off read from the data, not from the text of the source: active = growth inhibition above about 70%; inactive = the rest.
Your reply should match one of these outcome classes. active, inactive

Tell me the recorded outcome of this test for NC(=O)C1C2CC3C(C2O)C31C(N)=O (stereo not drawn) .
inactive

Tell me the recorded outcome of this test for COC(=O)C(Cl)=C1CC1 .
inactive

Tell me the recorded outcome of this test for O=C(NC(Cc1ccccc1)C(=O)O)Oc1ccc2ccccc2c1 (stereo not drawn) .
inactive

Tell me the recorded outcome of this test for O=C(C[n+]1cc(Br)cc(Br)c1)c1ccc(Br)cc1 .
inactive

Tell me the recorded outcome of this test for CCOC(Nc1ccccc1[N+](=O)[O-])C(=O)c1ccccc1 (stereo not drawn) .
inactive

Tell me the recorded outcome of this test for NC(=O)c1nnc2cc(F)ccc2c1N .
inactive

Tell me the recorded outcome of this test for NC(=O)C1(C(N)=O)CC1 .
inactive

Tell me the recorded outcome of this test for CCCCCCC1OCCO1 .
inactive

Tell me the recorded outcome of this test for NC(=S)N/N=C(\Cc1nc2ccc(Cl)cc2[nH]c1=O)C(=O)Nc1ccc(Cl)cc1 .
inactive

Tell me the recorded outcome of this test for COc1cccc(NC(=S)NNC(=S)NNc2ccccc2)c1 .
active

Tell me the recorded outcome of this test for CCCCCCOC(=O)/C=C1/OC(=O)c2ccccc21 .
inactive

Tell me the recorded outcome of this test for Fc1ccc(NC(=S)NCCN2CCCC2)cc1 .
inactive

Tell me the recorded outcome of this test for C=CCSc1nc2ccc(N=Cc3ccc([N+](=O)[O-])cc3)cc2s1 .
inactive

====

Exercise: state measured growth inhibition for each of the compounds provided.
test-protocol: NCI Yeast Anticancer Drug Screen. Data for the mec2-1 strain (AID 157)
experimental-conditions: S. cerevisiae mec2-1 strain, at 50.0 µM, active compounds read high
About 79,000 compounds went through this panel and 15% of them were active in at least one assay; those are over-represented in the sample as a whole.
Unit % implied. Number only.

Look up growth inhibition: C=CCN1C(=O)C(c2ccccc2)(c2ccccc2)NC1=S
-32.9

Look up growth inhibition: C=CCn1c(C23CC4CC(CC(C4)C2)C3)n[nH]c1=S
37.7

Look up growth inhibition: O=[N+]([O-])c1cccc(-c2cc(-c3cccs3)cc(-c3ccccc3)n2)c1
3.95

Look up growth inhibition: Cc1cn(C2CC(OS(C)(=O)=O)C(COC(c3ccccc3)(c3ccccc3)c3ccccc3)O2)c(=O)[nH]c1=O (stereo unspecified)
1.95

Look up growth inhibition: O=C1c2ccccc2C(=O)c2c(Cl)ccc(O)c21
11.2

Look up growth inhibition: COC(=O)c1cccnc1C#N
-0.95

Look up growth inhibition: CCC(CC)C1OCC(O)CO1 (stereo unspecified) (tested in a mixture with another compound)
2.7

Look up growth inhibition: NC(CCCCO)C(=O)O (stereo unspecified)
-35.8

Look up growth inhibition: CC1(C)N=C(c2ccccc2)SC1(C)C
-12.2

Look up growth inhibition: O=C1OC(c2cccc(C(F)(F)F)c2)c2ccc3ccccc3c21 (stereo unspecified)
-0.45

Look up growth inhibition: C=C1c2nc3ccccc3n2C=C(c2ccc(Cl)cc2)N1c1ccccc1
23.4

All figures here come from PubChem BioAssay (NCI).
